Experiment: qHTS Assay for inhibitors of the human cytomegalovirus (HCMV); also: % is scaled to controls: 0 for no effect and ±100 for the full control effect
Conditions: HFF cells, HCMV-luciferase reporter, 72 h; at 57.5 µM; active compounds read low
The campaign covered roughly 410,000 compounds. About 18,000 (4.4%) were called active. About 7% were inconclusive and are not listed. Shown is part of a subset that was picked to be rich in actives.
Value Type: activity change, negative = inhibition (%)

Cn1cnnc1Sc1ccc(CN2CCN(C3CCCC3)C(CCO)C2)o1 (configuration not stated) : -68.7
CCOc1ccc(CNC(=O)c2ccc3nc(CC)c(CC)nc3c2)cc1OC : -2.8
N#CC1=C(SCc2ccc(C#N)cc2)N=C(N)C(c2nc(-c3ccccc3)cs2)C12CCCCC2 (configuration not stated) : -98.4
CSc1ccc(CNCCN2CCOCC2)cc1 : 0
CSCC[C@H](NC(=O)NCCc1ccc(F)cc1)C(=O)O : -21.4
COc1ccc(C(=O)N2CCC(c3nc4ccccc4o3)CC2)cc1 : 43.5
Cc1cc(C)c(-c2n[nH]c3c2C(c2ccccc2F)N(CCO)C3=O)c(O)c1 (configuration not stated) : 25.7
CCc1ccc(CNC(=O)c2ccc(CS(=O)c3ccc(Br)cc3)o2)cc1 (configuration not stated) : 10.6
Cc1nc(NC(=O)CN(C)S(=O)(=O)c2ccc(Cl)cc2)sc1C : 12.3
Cc1ccc2c(c1)N(C(=O)CCC(=O)NCc1ccccc1F)CC(C)O2 (configuration not stated) : 8.23
COc1ccccc1/C=C/C(=O)OCC(=O)NC1CCCCCC1 : -34.6
COc1cc(NC(=O)c2cc3ccc4cccnc4c3[nH]2)cc(OC)c1OC : 65
COc1cc(C(=O)Nc2ccc(OCc3cc(=O)n4cc(C)sc4n3)cc2)cc(OC)c1OC : 13.1
O=C(Nc1c(Br)cc2c(c1Br)Cc1cc([N+](=O)[O-])ccc1-2)C(Cl)Cl : -31.6
COCCN(C(=O)CCC(=O)Nc1nccs1)C(C(=O)NC(C)(C)C)c1ccc(Cl)cc1 (configuration not stated) : -6.27
Oc1cccc2cc(-c3ccncc3)cnc12 : -101
CCOC(=O)C(=Cc1ccccc1OC)C(=O)OCC : -65.2
CCOC(=O)Cc1csc(NC(=O)CN(C)S(=O)(=O)c2ccc3c(c2)CCC(=O)N3)n1 : 14.5
COc1ccccc1-n1c(-c2ccc(C)cc2)cn2c3c(=O)n(C)c(=O)n(C)c3nc12 : -0.712
N#Cc1ccc(CSc2ncccn2)cc1 : 4.06
CC(=O)Oc1cc2c(C(=O)NCCN3CCOCC3)c(C)oc2c2ccccc12 : 55.4
CN(CCCC(=O)Nc1nccs1)S(=O)(=O)c1ccc(Cl)cc1 : -64.7

Each recorded value in this set is attributed to PubChem BioAssay AID1259415.
